Target: ligand binding domain of human FXR (Homo sapiens (Human))
Sequence (Q96RI1 262-486): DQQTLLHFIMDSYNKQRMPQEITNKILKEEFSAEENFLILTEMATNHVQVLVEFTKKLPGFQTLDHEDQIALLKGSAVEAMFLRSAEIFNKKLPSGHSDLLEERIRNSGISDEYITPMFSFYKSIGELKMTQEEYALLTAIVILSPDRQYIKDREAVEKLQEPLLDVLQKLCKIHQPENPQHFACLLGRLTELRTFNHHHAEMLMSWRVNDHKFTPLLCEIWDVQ
Assay: FXR ligand binding assay (LanthaScreen TR-FRET, SRC2-2 peptide recruitment)
Details: extent of activation relative to GW4064; read-out: % Efficacy
// Emax lookup, one value per entry
experimental endpoint: Emax (%)

- N#Cc1cc(F)c(N2C[C@@H]3C[C@H]2C[C@H]3OCc2c(-c3c(Cl)cccc3Cl)noc2C2CC2)c(F)c1 [Compound I-54a]: 162
- O=CN(O)Cc1ccc(N2C[C@@H]3C[C@H]2C[C@H]3OCc2c(-c3c(Cl)cccc3Cl)noc2C2CC2)cc1 [Compound I-161]: 134
- N#Cc1cc(N2C[C@@H]3C[C@H]2C[C@H]3OCc2c(-c3c(Cl)cccc3Cl)noc2C2CC2)ccc1C(=O)O [Compound I-101]: 137
- O=C(O)c1ccc(N2C[C@@H]3C[C@H]2C[C@H]3OCc2c(-c3c(Cl)cccc3Cl)noc2C2CC2)c(C2CC2)c1 [Compound I-108]: 117
- O=C(O)[C@@H]1CCc2cc(N3C[C@@H]4C[C@H]3C[C@H]4OCc3c(-c4c(Cl)cccc4Cl)noc3C3CC3)ccc2C1 (single isomer, unassigned) [Compound I-137]: 132
- O=C(NS(=O)(=O)CCOC(=O)C1CC1)c1ccc(N2C[C@@H]3C[C@H]2C[C@H]3OCc2c(-c3c(Cl)cccc3Cl)noc2C2CC2)cc1 [Compound I-212]: 136

---

Molecular target: human Farnesoid X receptor ligand-binding domain/Gal4 DNA binding domain chimera (Homo sapiens (Human))
Sequence (P04386 1-147 partner, one chain of several): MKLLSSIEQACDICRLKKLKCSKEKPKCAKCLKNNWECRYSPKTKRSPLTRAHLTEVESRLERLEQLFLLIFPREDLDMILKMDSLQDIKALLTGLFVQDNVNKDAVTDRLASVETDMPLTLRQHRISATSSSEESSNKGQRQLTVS
Assay: Cell-based assay of FXR activation (FXR-UAS-bla HEK 293T beta-lactamase reporter)
Conditions: cellular FXR beta-lactamase reporter assay, FXR-UAS-bla HEK 293T cells, 16 h; pEC50 = -log EC50
// EC50 lookup, one value per entry
experimental endpoint: EC50 (nM)

• O=C(O)c1cc(O[C@H]2CCOC2)c2nc(N3C(=O)[C@@H]4C[C@H]3C[C@H]4OCc3c(-c4c(Cl)cccc4Cl)noc3C3CC3)sc2c1 [Compound I-302] = 39.8
• O=C(O)c1cc(OC2CC2)c2nc(N3C[C@@H]4C[C@H]3C[C@H]4OCc3c(-c4c(Cl)cccc4Cl)noc3C3CC3)sc2c1 [Compound I-259] = 0.1
• O=C(O)c1ccc(N2C(=O)[C@@H]3C[C@H]2C[C@H]3OCc2c(-c3c(Cl)cccc3Cl)noc2C2CC2)cc1 [Compound I-244] = 2
• O=C(NS(=O)(=O)C1CC1)c1cnc(N2C[C@@H]3C[C@H]2C[C@H]3OCc2c(-c3c(Cl)cccc3Cl)noc2C2CC2)c(F)c1 [Compound I-207] = 3.98
• O=C(NS(=O)(=O)C1CC1)c1ccc(N2C[C@@H]3C[C@H]2C[C@H]3OCc2c(C3CCC4(CC3)CC4)noc2C2CC2)c(F)c1 [Compound I-229] = 39.8
• CCc1cc(C(=O)O)ccc1N1C[C@@H]2C[C@H]1C[C@H]2OCc1c(-c2c(Cl)cccc2Cl)noc1C1CC1 [Compound I-109] = 1.58
• O=C(NCc1nn[nH]n1)c1ccc(N2C[C@@H]3C[C@H]2C[C@H]3OCc2c(-c3c(Cl)cccc3Cl)noc2C2CC2)cc1 [Compound I-164] = 79.4
• O=C(O)c1ccc(N2C[C@@H]3C[C@H]2C[C@H]3OCc2c(-c3ccccc3C(F)(F)F)noc2C2CC2)c(F)c1 [Compound I-121] = 1.26
• Fc1cc(CCc2nn[nH]n2)ccc1N1C[C@@H]2C[C@H]1C[C@H]2OCc1c(-c2c(Cl)cccc2Cl)noc1C1CC1 [Compound I-162] = 6.31
• NS(=O)(=O)[C@@H]1CCC[C@H]1OC(=O)c1ccc(N2C(=O)[C@@H]3C[C@H]2C[C@H]3OCc2c(-c3c(Cl)cccc3Cl)noc2C2CC2)cc1F [Compound I-347] = 1
• CC(=O)OCCCS(=O)(=O)NC(=O)c1ccc(N2C[C@@H]3C[C@H]2C[C@H]3OCc2c(-c3c(Cl)cccc3Cl)noc2C2CC2)cc1 [Compound I-214] = 2.51
• Cc1cccc(Cl)c1-c1noc(C2CC2)c1CO[C@@H]1C[C@@H]2C[C@H]1CN2c1ccc(CCC(=O)NS(=O)(=O)C2CCOCC2)cc1F [Compound I-243] = 6.31
